Below, each entry is listed with its recorded log10 of Kd.
Measured target: T1, human IL-23 (human, UniProt Q9NPF7 20-189; P29460 23-328)
T1 construct: also called hIL-23; human recombinant IL-23
T1 sequence (looked up) 1: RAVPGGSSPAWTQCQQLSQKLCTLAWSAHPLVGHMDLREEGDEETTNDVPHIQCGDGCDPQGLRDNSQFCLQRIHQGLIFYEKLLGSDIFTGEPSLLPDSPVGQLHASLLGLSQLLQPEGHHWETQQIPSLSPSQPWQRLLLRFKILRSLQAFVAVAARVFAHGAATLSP
T1 sequence (looked up) 2: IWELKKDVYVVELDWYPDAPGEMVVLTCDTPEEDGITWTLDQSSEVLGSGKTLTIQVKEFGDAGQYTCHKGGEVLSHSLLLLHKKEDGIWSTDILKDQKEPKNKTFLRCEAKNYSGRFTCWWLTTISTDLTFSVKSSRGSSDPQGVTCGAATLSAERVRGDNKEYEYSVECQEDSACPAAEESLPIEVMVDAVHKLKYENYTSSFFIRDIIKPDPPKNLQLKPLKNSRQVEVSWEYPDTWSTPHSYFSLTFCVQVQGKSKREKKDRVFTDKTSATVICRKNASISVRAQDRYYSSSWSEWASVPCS
Protocol: SPR (ProteOn XPR), human IL-23 directly immobilized, 25 C
Parameter value (number): base-10 log of Kd in nM.

Worked set:
- Binder: "1571G04 (designed binder, captured by anti-His mAb) MGVSDVPRDLEVVAATPTSLLISWGHYPLHVRYYRITYGETGGNSPVQEFTVPPRSHTATISGLKPGVDYTITVYAVTYYAQENYKEIPISINYRTEIDKPSQHHHHHH"
  log10 of Kd: -0.70
- Binder: "ATI001047 (designed binder, pegylated at the C-terminal GSGC linker (Cys)) MGVSDVPRDLEVVAATPTSLLISWGHYPLHVRYYRITYGETGGNSPVQEFTVPPRSHTATISGLKPGVDYTITVYAVTYYAQENYKEIPISINYRTGSGC"
  log10 of Kd: 0.20
- Binder: "ATI000934 (designed binder, pegylated at the C-terminal EIDKPCQ (Cys), also called ATI 934; not shown: his-tag) MGVSDVPRDLEVVAATPTSLLISWGHYPLHLRYYRITYGETGGNSPVQEFTVPRTKYTATISGLKPGVDYTITVYAVTYYKEADYSQIPISINYRTEIDKPCQ"
  log10 of Kd: 0.28
- Binder: "ATI001045 (designed binder, pegylated at the C-terminal GSGC linker (Cys)) MGVSDVPRDLEVVAATPTSLLISWGHYPLHVRYYRITYGETGGNSPVQEFTVPSRKYTATISGLKPGVDYTITVYAVTYYKEANYREIPISINYRTGSGC"
  log10 of Kd: -0.77

Could you now look at the following binder, please?
Given the binder ATI001014 (designed binder, pegylated at the C-terminal GSGC linker (Cys), not shown: his-tag) MGVSDVPRDLEVVAATPTSLLISWGHYPLHVRYYRITYGETGGNSPVQEFTVPPRSHTATISGLKPGVDYTITVYAVTYYAQENYKEIPISINYRTGSGC , what is its reported log10 of Kd? 0.26
